System: SF-539 CNS
Experiment: NCI tumour cell line growth inhibition, 48 h
experimental.readout: TGI

The following molecules have reported results that may help.
COc1ccc(C2(CN(C)C)COc3cc(OC)c(OC)cc3C2=O)cc1OC (stereo not given): > 100 µM
COc1ccc(CSCc2cc(OC)c(OC)c(OC)c2)cc1: > 100 µM
Cn1cnc2c(F)c(Nc3ccc(Br)cc3Cl)c(C(=O)NOCCO)cc21: > 100 µM
CCNC(=O)C(O)C1(O)CCC2[C@@H]3CCC4=CC(=O)C=C[C@]4(C)C3[C@@H](O)C[C@@]21C (stereo not given in full): > 100 µM
COc1ccc(C2=NNC(c3ccc(-c4ccc(OC)cc4[N+](=O)[O-])o3)C2)cc1 (stereo not given): 23.1 µM

Ask: // lookup TGI for "C/C(=N\NC(N)=S)c1ccc2c(c1)OCO2"
Result: > 100 µM

Ask: // lookup TGI for "COc1ccc2c(c1)[nH]c(=O)c1c3cccnc3cn21"
Result: 2.39 µM
